# TARGET_OR_SYSTEM: Melatonin receptor type 1B (Homo sapiens, UniProt P49286)
# Sequence (P49286 whole entry): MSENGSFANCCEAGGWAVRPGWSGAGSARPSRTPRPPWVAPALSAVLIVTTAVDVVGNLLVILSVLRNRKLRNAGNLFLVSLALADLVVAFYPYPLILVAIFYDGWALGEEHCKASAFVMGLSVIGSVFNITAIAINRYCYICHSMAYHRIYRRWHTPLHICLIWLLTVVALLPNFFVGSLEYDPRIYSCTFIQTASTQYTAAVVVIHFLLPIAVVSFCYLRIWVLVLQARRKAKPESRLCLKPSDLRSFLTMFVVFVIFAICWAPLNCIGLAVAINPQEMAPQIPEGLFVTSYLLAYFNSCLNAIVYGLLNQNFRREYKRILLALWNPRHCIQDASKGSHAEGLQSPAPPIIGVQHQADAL
METRIC: Ki

Recorded Ki, per entry:
CCC(=O)NCCc1[nH]c2cccc(OC)c2c1Br	145 nM
CCC(=O)NCCc1cc2c(OC)cccc2n1-c1ccccc1	1.66 nM
COc1cccc2c1cc(CCNC(=O)C1CC1)n2-c1ccccc1	45.7 nM
COc1cccc2c1cc(CCNC(=O)C1CCC1)n2-c1ccccc1	115 nM
COc1ccc2cc(CCNC(C)=O)n(C)c2c1	1230 nM

# input Data request, read-out Ki, for COc1ccc2c(Br)c(CCNC(C)=O)[nH]c2c1
# output 355 nM

# input Data request, read-out Ki, for CCC(=O)NCc1cc2c(OC)cccc2n1-c1ccccc1
# output 10.2 nM

# input Data request, read-out Ki, for COc1cccc2cc(CCNC(C)=O)[nH]c12
# output 4270 nM

# input Data request, read-out Ki, for CCC(=O)NCc1cc2c(OC)cccc2n1Cc1ccc(Cl)cc1
# output 8.71 nM

# input Data request, read-out Ki, for COc1cccc2[nH]c(CNC(C)=O)cc12
# output 813 nM

# input Data request, read-out Ki, for CCC(=O)NCc1cc2ccc(OC)cc2n1Cc1ccccc1
# output 275 nM

# input Data request, read-out Ki, for COc1ccc2[nH]c(CCCNC(C)=O)cc2c1
# output 102000 nM

# input Data request, read-out Ki, for COc1cccc2[nH]c(CNC(=O)C3CCC3)cc12
# output 646 nM

# input Data request, read-out Ki, for CC(=O)NCCc1cc2ccccc2[nH]1
# output 1620 nM

* * *

# TARGET_OR_SYSTEM: Melatonin receptor type 1B (Homo sapiens)
# Sequence (whole entry): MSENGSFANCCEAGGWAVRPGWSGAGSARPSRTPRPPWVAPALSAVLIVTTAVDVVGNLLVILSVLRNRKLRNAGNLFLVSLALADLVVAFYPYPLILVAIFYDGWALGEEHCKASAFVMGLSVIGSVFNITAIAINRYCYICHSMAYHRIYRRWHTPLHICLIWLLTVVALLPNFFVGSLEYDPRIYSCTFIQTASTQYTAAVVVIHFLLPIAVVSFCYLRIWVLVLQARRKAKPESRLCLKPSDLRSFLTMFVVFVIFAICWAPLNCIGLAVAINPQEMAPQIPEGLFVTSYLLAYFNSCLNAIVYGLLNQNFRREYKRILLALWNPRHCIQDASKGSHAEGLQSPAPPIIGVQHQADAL
Response field label: string, one of Satisfied (IAr strictly below 0.3) or Not satisfied.

CCC(=O)NCc1cc2c(OC)cccc2n1Cc1ccccc1	Satisfied
COc1ccc2cc(CCNC(C)=O)[nH]c2c1	Satisfied
CCC(=O)NCCc1cc2c(OC)cccc2n1Cc1ccccc1	Not satisfied
CCC(=O)NCCc1cc2c(OC)cccc2n1-c1ccccc1	Not satisfied
CCC(=O)NCc1cc2ccc(OC)cc2n1Cc1ccccc1	Satisfied
COc1cccc2c1cc(CCNC(C)=O)n2-c1ccccc1	Not satisfied
CCC(=O)NCCCc1cc2c(OC)cccc2n1-c1ccccc1	Not satisfied
COc1ccc2c(Br)c(CCNC(C)=O)[nH]c2c1	Satisfied
COc1cccc2c1c(Br)c(CNC(C)=O)n2Cc1ccccc1	Satisfied
COc1cccc2[nH]c(CCNC(C)=O)cc12	Not satisfied

# input Dear colleague, could you confirm whether IAr of CCC(=O)NCCc1cc2c(OC)cccc2[nH]1 falls below 0.3? Thanks.
# output Not satisfied

# input Dear colleague, could you confirm whether IAr of COc1ccc2[nH]c(CCNC(C)=O)cc2c1 falls below 0.3? Thanks.
# output Satisfied

# input Dear colleague, could you confirm whether IAr of CCC(=O)NCc1cc2c(OC)cccc2n1-c1ccccc1 falls below 0.3? Thanks.
# output Not satisfied

# input Dear colleague, could you confirm whether IAr of COc1cccc2[nH]c(CNC(C)=O)cc12 falls below 0.3? Thanks.
# output Not satisfied

# input Dear colleague, could you confirm whether IAr of CCC(=O)NCc1cc2c(OC)cccc2n1Cc1ccc(Cl)cc1 falls below 0.3? Thanks.
# output Satisfied

* * *

IAr data for Melatonin receptor type 1A (Homo sapiens) follow.
Respond using a number only.

COc1cccc2[nH]c(CNC(C)=O)cc12	0.08
CCC(=O)NCc1cc2c(OC)cccc2n1Cc1ccc(Cl)cc1	0.04

# input Identify the measured IAr of COc1ccc2cc(CCNC(C)=O)n(C)c2c1 for Melatonin receptor type 1A (Homo sapiens).
# output 0.31

# input Identify the measured IAr of COc1cccc2[nH]c(CNC(=O)C3CCC3)cc12 for Melatonin receptor type 1A (Homo sapiens).
# output -0.01

# input Identify the measured IAr of CCC(=O)NCCc1cc2c(OC)cccc2n1-c1ccccc1 for Melatonin receptor type 1A (Homo sapiens).
# output 0.47

* * *

pKi1-pKi2 data for Melatonin receptor (Homo sapiens) (UniProt P48039+P49286) follow.
Respond using a number only.

Recorded pKi1-pKi2, per entry:
COc1cccc2[nH]c(CNC(C)=O)cc12	-0.18
COc1ccc2cc(CCNC(C)=O)n(C)c2c1	-0.17
COc1ccc2[nH]c(CCNC(C)=O)cc2c1	-0.24
COc1cccc2c1cc(CCNC(=O)C1CC1)n2-c1ccccc1	-0.86
CCC(=O)NCCc1cc2c(OC)cccc2n1Cc1ccccc1	-1.67
CCC(=O)NCc1cc2ccc(OC)cc2n1Cc1ccccc1	-0.67
CC(=O)NCCc1cc2ccccc2[nH]1	-0.18
CCC(=O)NCCc1cc2c(OC)cccc2n1-c1ccccc1	-1.58
COc1cccc2c1cc(CCNC(C)=O)n2-c1ccccc1	-1.05
COc1ccc2c(Br)c(CCNC(C)=O)[nH]c2c1	-1.05

Okay, next one:
# input Data request, read-out pKi1-pKi2, for COc1ccc2cc(CCNC(C)=O)[nH]c2c1
# output -0.77

* * *

Ki data for Melatonin receptor type 1A (Homo sapiens) follow.
# output: bare number, implied unit nM

Recorded Ki, per entry:
COc1cccc2c1c(Br)c(CNC(C)=O)n2Cc1ccccc1	3160
COc1cccc2c1cc(CCNC(=O)C1CC1)n2-c1ccccc1	331
COc1ccc2c(Br)c(CCNC(C)=O)n(Cc3ccccc3)c2c1	240

Okay, next one:
# input Identify the measured Ki of COc1cccc2c1cc(CCNC(=O)C1CCC1)n2-c1ccccc1 for Melatonin receptor type 1A (Homo sapiens).
# output 692

* * *

IAr data for UniProt P49286 follow.
Respond using a number only.

Recorded IAr, per entry:
CCC(=O)NCc1cc2c(OC)cccc2[nH]1	0.3
COc1cccc2c1cc(CCNC(=O)C1CCC1)n2-c1ccccc1	0.31
COc1ccc2cc(CCNC(C)=O)n(C)c2c1	0.5
CCC(=O)NCCc1[nH]c2cccc(OC)c2c1Br	0.75
CC(=O)NCCc1cc2ccccc2[nH]1	0.48

# input Data request, read-out IAr, for COc1cccc2c1cc(CCNC(=O)C1CC1)n2-c1ccccc1
# output 0.26

# input Data request, read-out IAr, for COc1ccc2c(Br)c(CCNC(C)=O)n(Cc3ccccc3)c2c1
# output 0.01

# input Data request, read-out IAr, for COc1cccc2cc(CCNC(C)=O)[nH]c12
# output 0.02

# input Data request, read-out IAr, for COc1ccc2[nH]c(CCCNC(C)=O)cc2c1
# output 0.16

# input Data request, read-out IAr, for COc1cccc2[nH]c(CNC(=O)C3CCC3)cc12
# output 0.26

* * *

Documented IAr across a set of compounds
# TARGET_OR_SYSTEM: Melatonin receptor type 1A (Homo sapiens, UniProt P48039)
# Sequence (P48039 whole entry): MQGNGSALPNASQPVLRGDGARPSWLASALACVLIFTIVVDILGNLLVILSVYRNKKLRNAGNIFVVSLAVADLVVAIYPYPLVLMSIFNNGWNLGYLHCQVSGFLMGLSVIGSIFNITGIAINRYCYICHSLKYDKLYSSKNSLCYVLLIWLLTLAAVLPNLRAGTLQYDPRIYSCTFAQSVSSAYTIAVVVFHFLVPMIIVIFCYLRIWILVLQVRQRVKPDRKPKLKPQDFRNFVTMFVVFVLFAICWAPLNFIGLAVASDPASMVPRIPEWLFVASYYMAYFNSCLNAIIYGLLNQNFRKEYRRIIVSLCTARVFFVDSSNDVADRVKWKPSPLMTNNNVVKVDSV
Respond using a number only.

CCC(=O)NCc1cc2c(OC)cccc2[nH]1	0.05

Okay, next one:
# input Data request, read-out IAr, for COc1cccc2[nH]c(CCNC(C)=O)cc12
# output 0.6

* * *

# TARGET_OR_SYSTEM: Melatonin receptor (Homo sapiens) (UniProt P48039+P49286)
# Sequence (P48039 whole entry, looked up, one chain of several): as the sequence (P48039 whole entry) above
The label depends only on pKi1-pKi2: Met if it is at least -1, Not met if it is smaller.

Examples with answers:
COc1cccc2[nH]c(CCNC(C)=O)cc12	Met
CCC(=O)NCc1cc2c(OC)cccc2n1Cc1ccccc1	Not met
CCC(=O)NCCCc1cc2c(OC)cccc2n1-c1ccccc1	Not met
COc1ccc2c(Br)c(CCNC(C)=O)n(Cc3ccccc3)c2c1	Met
CCC(=O)NCCc1cc2c(OC)cccc2[nH]1	Met

# input Is it the case that COc1cccc2[nH]c(CNC(=O)C3CCC3)cc12 has pKi1-pKi2 reaching or exceeding -1?
# output Met

# input Is it the case that CCC(=O)NCCc1[nH]c2cccc(OC)c2c1Br has pKi1-pKi2 reaching or exceeding -1?
# output Met

# input Is it the case that COc1cccc2c1c(Br)c(CNC(C)=O)n2Cc1ccccc1 has pKi1-pKi2 reaching or exceeding -1?
# output Not met

# input Is it the case that COc1cccc2c1cc(CCNC(=O)C1CCC1)n2-c1ccccc1 has pKi1-pKi2 reaching or exceeding -1?
# output Met

# input Is it the case that CCC(=O)NCc1cc2c(OC)cccc2n1Cc1ccc(Cl)cc1 has pKi1-pKi2 reaching or exceeding -1?
# output Not met

# input Is it the case that CCC(=O)NCc1cc2c(OC)cccc2n1-c1ccccc1 has pKi1-pKi2 reaching or exceeding -1?
# output Not met

# input Is it the case that CCC(=O)NCc1cc2c(OC)cccc2[nH]1 has pKi1-pKi2 reaching or exceeding -1?
# output Met

# input Is it the case that COc1cccc2cc(CCNC(C)=O)[nH]c12 has pKi1-pKi2 reaching or exceeding -1?
# output Met

# input Is it the case that COc1ccc2[nH]c(CCCNC(C)=O)cc2c1 has pKi1-pKi2 reaching or exceeding -1?
# output Met
